# TEST DETAILS: cAMP Responsive Elements (CRE) small molecule antagonists, cell-based qHTS assay: qHTS cell viability counter screen (AID 2060913); also: nearly all actives have a fitted effect of over 40% in size
# CONDITION NOTES: CRE-bla HEK293T viability, CellTiter-Glo luminescence, 5 h; series mostly up to 92.4 µM
Inconclusive results are not listed. Activity calls are given as the source filed them. Calls follow the shape of the dose curve; as a rule, active = well fitted cell-killing curve with a large enough effect in the repeat runs; inconclusive = weak or mixed curves, or effect the other way; inactive = flat fitted curve, though single readings scatter.
ASSAY READOUT: viability change, negative = cytotoxic

Here are 6 compounds together with their reported answers.
Which value of viability change, negative = cytotoxic has been reported for `CC(C)(C)c1ccc(C(=O)CCCCl)cc1` in the records? inactive

Sample `CC(C)(C)CC(C)(C)c1ccc(O)c(-n2nc3ccccc3n2)c1` — what was its viability change, negative = cytotoxic? inactive

Name the reported viability change, negative = cytotoxic value associated with the compound `Cc1occc1SSc1ccoc1C` inactive

Field request: viability change, negative = cytotoxic | item: `CCCCC/C=C\CCC=O` inactive

Requested field: viability change, negative = cytotoxic. Item: `O=S(=O)(O)NC1CCCCC1` inactive

Item `CCCCCCCCOC(C)=O` has what recorded viability change, negative = cytotoxic? inactive

Hello, I would appreciate it if you could give viability change, negative = cytotoxic for each entry below.
1. CCCOCCOCCO
2. CC(=O)c1ccc2c(c1)N(CCCN(C)C)c1ccccc1S2

1: inactive; 2: inactive

====

# TEST DETAILS: cAMP Responsive Elements (CRE) small molecule antagonists, cell-based qHTS assay: qHTS cell viability counter screen (AID 2060913); also: nearly all actives have a fitted effect of over 40% in size
# CONDITION NOTES: CRE-bla HEK293T viability, CellTiter-Glo luminescence, 5 h; series mostly up to 92.4 µM
Results filed as inconclusive are left out. Active and inactive are the calls of the source. The call rests on the fitted dose curve; in most records, active means well fitted cell-killing curve with a large enough effect in the repeat runs; inconclusive means weak or mixed curves, or effect the other way; inactive means flat fitted curve, though single readings scatter.
ASSAY READOUT: viability change, negative = cytotoxic

Example entries and their recorded answers appear below.
Suppose we examine the compound `OCc1ccccc1` ; what viability change, negative = cytotoxic value has been reported? inactive

Sample `CCOc1ccccc1OCC` — what was its viability change, negative = cytotoxic? inactive

So what's the measured viability change, negative = cytotoxic for this one? `CN(C)c1ccc(Cc2ccc(N(C)C)cc2)cc1` inactive

I have this compound here, `COc1cc(Cl)ccc1Oc1ccc(Cl)cc1Cl` , and I need its recorded viability change, negative = cytotoxic. inactive

Fill in: viability change, negative = cytotoxic of `CCCCOc1ccc(N)cc1` is ___ inactive

Any idea what its viability change, negative = cytotoxic is? The compound is CC(C)NCC(O)c1ccc(O)c(O)c1 (stereo not given) inactive

Recorded viability change, negative = cytotoxic of CC1COC(=O)O1 (stereo not given) , please. inactive

What viability change, negative = cytotoxic value was documented for this compound, `NC(=O)c1ccc([N+](=O)[O-])cc1Cl` ? inactive

Consider the compound COC(OC)C(C)c1ccccc1 (stereo not given) and give its measured viability change, negative = cytotoxic. inactive

Field request: viability change, negative = cytotoxic | item: `O=Cc1cc(O)ccc1Br` inactive

Okay, here is my list. What is viability change, negative = cytotoxic for each of these?
1. CCC(C)(C)CC
2. CC(C)=CCC[C@H](C)CCO
3. CC(=O)c1ccc(O)cc1

1: inactive; 2: inactive; 3: inactive

State recorded viability change, negative = cytotoxic for all listed compounds.
1. O=C(O)c1c2ccccc2cc2ccccc12
2. COC(=O)[C@H](Cc1ccccc1)NC(=O)[C@@H](N)CC(=O)O

1. inactive
2. inactive

The following compounds each have a reported value; give each one's viability change, negative = cytotoxic.
1. Cc1ccccc1S(N)(=O)=O
2. C[C@@H]1O[C@@H](OC[C@H]2O[C@@H](Oc3c(-c4ccc(O)c(O)c4)oc4cc(O)cc(O)c4c3=O)[C@H](O)[C@@H](O)[C@@H]2O)[C@H](O)[C@H](O)[C@H]1O

1: inactive; 2: inactive

Please report viability change, negative = cytotoxic for every entry that follows.
1. CCC(CO)(CO)CO
2. CC(=O)Nc1cccc(O)c1
3. C=CC(C)CCCC(C)(C)O (stereo not given)
4. O=C1CCCCCCCCCCCCCCCO1
5. CCCOC(=O)CC

inactive
inactive
inactive
inactive
inactive
